Target: High affinity cAMP-specific and IBMX-insensitive 3',5'-cyclic phosphodiesterase 8B (Homo sapiens)
Sequence (O95263 whole entry): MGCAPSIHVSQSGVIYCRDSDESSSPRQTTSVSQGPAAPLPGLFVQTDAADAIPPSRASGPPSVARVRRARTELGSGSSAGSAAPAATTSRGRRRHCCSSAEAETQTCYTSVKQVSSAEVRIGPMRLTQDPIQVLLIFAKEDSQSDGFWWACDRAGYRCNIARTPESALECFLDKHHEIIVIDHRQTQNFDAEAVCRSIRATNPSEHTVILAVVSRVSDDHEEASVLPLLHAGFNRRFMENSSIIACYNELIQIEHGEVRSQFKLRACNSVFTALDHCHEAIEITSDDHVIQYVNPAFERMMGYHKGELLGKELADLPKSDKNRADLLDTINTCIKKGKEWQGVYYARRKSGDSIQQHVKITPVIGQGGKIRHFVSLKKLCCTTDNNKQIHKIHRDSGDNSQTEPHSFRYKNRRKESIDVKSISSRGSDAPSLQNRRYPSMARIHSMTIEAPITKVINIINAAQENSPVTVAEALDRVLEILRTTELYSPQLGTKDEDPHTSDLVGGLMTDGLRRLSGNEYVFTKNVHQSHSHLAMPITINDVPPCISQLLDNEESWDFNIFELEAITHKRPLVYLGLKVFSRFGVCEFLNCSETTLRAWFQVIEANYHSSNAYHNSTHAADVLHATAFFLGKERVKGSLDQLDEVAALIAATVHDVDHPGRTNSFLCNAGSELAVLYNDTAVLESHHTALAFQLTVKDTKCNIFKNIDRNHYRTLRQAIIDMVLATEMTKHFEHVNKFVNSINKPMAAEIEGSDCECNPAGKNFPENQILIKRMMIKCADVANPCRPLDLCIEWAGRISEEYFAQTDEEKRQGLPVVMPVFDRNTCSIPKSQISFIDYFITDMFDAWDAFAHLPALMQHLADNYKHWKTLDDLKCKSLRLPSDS
pIC50: −log10 of the molar value.
Exercise: state measured pIC50 for each of the compounds provided.

Request: Recall and state the measured pIC50 for Cc1cccc(CNC(=O)C2CN(Cc3nc(-c4ccccc4)oc3C)CCO2)n1 (configuration not stated) .
Result: < 5.00

Others:
Request: Read the entry Cc1cccc(CNC(=O)[C@@H]2CCN(Cc3nc(-c4ccccc4)oc3C)C2)n1 and write its reported pIC50.
Result: < 5.00

---

Test: Volume of distribution at steady state in rat
Assay type: ADME, organism-based
Conditions: in vivo, read-out: Vdss
Experimental readout: Vd (L/kg)
Answers are plain numbers, in L/kg.

Request: Find the measured Vd of CC[C@@H]1C[C@@H](C(=O)NCc2cccc(C)n2)CN(Cc2nc(-c3ccccc3)oc2C)C1 and report it.
Result: 1.4
